Target: T1, human GPVI-Fc fusion protein (human, UniProt Q9HCN6 21-267, limits assumed)
T1 construct: also called human GPVI protein antigen
T1 sequence (looked up): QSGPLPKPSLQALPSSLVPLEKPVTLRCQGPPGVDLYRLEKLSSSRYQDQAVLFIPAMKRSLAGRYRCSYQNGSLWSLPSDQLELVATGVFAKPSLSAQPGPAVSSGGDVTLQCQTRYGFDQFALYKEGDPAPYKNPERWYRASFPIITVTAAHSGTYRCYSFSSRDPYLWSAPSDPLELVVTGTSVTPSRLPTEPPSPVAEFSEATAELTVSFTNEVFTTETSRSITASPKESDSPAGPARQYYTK
Test: BLI (Octet), GPVI-Fc on biosensor, 1:1 fit
Catalogue of koff readings, one per entry.
QUANTITY_NAME: koff (s⁻¹)

>>> numeric_readout("HC1 LC3 humanized Fab (Fab, V domains shown, also called VH1:VL3) VH: QVQLQESGPGLVKPSETLSLTCTASGFSLTSYGVTWIRQPPGKGLEWIGVIWGDGSTNYHSGLRSRVTISVDTSKSQFSLKLSSVTAADTAVYYCAKPIYYDFDDDAMDYWGQGTLVTVSS VL: DIQLTQSPSTLSASVGDRVTITCKASQNVGTYVAWYQQKPGKAPKLLIYSASYRCSGVPSRFSGSGSGTEFTLTISSLQPDDFTTYYCHQYNNYPLTFGQGTKVEIKR")
0.000221
>>> numeric_readout("HC1 LC2 humanized Fab (EMA601) (Fab, V domains shown, also called EMF601; VH1:VL2) VH: QVQLQESGPGLVKPSETLSLTCTASGFSLTSYGVTWIRQPPGKGLEWIGVIWGDGSTNYHSGLRSRVTISVDTSKSQFSLKLSSVTAADTAVYYCAKPIYYDFDDDAMDYWGQGTLVTVSS VL: DIQMTQSPSSLSASVGDRVTITCKASQNVGTYVAWFQQRPGKAPKSLIYSASYRCSGVPSKFSGSGSGTDFTLTINSLQPEDFATYYCHQYNNYPLTFGQGTKVEIKR")
0.000123
